Test system: AAVS1
Experiment: GFP insertion at AAVS1 in T cells with SpyCas9 RNP and gapped AAV templates, flow cytometry (Example 6)
Format: cell-based, human
Conditions: Donor 2; Template A; day 7 post-editing
Experimental: AAVS1 guide RNAs were designed and screened to identify insertion SpyCas9 guides using a series of gapped AAV GFP templates (A, B, C, D, OG) each designed for a subset of the guide RNAs. Insertion efficacy in T cells was examined by assessing GFP expression by flow cytometry. […] AAVS1 guide RNAs were assessed for insertion efficacy in T cells by assessing GFP expression by flow cytometry. […]
Strand notation (5' to 3'): a small letter for the sugar, then the base; units joined by * are phosphorothioate-linked, units joined directly phosphodiester-linked; [ ] holds rarer units or linkages, { } end groups; capitals alone tell only the bases. m = 2'-O-methyl; r = 2'-OH (RNA)
experimentalReadout: Mean percentage of T cells positive for GFP expression

INSERT INTO assay_data (molecule, endpointresult) VALUES
  ('G013563: AAVS1 SpyCas9 guide RNA, guide sequence SEQ ID NO: 260, chr19:55115835-55115855 (nucleic acid) guide: mA*mU*mA*rUrArArGrGrUrGrGrUrCrCrCrArGrCrUrCrGrUrUrUrUrArGrAmGmCmUmAmGmAmAmAmUmAmGmCrArArGrUrUrArArArArUrArArGrGrCrUrArGrUrCrCrGrUrUrArUrCrAmAmCmUmUmGmAmAmAmAmAmGmUmGmGmCmAmCmCmGmAmGmUmCmGmGmUmGmCmU*mU*mU*mU', '69.40%'),
  ('G013562: AAVS1 SpyCas9 guide RNA, guide sequence SEQ ID NO: 259, chr19:55115834-55115854 (nucleic acid) guide: mA*mA*mU*rArUrArArGrGrUrGrGrUrCrCrCrArGrCrUrGrUrUrUrUrArGrAmGmCmUmAmGmAmAmAmUmAmGmCrArArGrUrUrArArArArUrArArGrGrCrUrArGrUrCrCrGrUrUrArUrCrAmAmCmUmUmGmAmAmAmAmAmGmUmGmGmCmAmCmCmGmAmGmUmCmGmGmUmGmCmU*mU*mU*mU', '62.35%'),
  ('G013564: AAVS1 SpyCas9 guide RNA, guide sequence SEQ ID NO: 261, chr19:55115836-55115856 (nucleic acid) guide: mU*mA*mU*rArArGrGrUrGrGrUrCrCrCrArGrCrUrCrGrGrUrUrUrUrArGrAmGmCmUmAmGmAmAmAmUmAmGmCrArArGrUrUrArArArArUrArArGrGrCrUrArGrUrCrCrGrUrUrArUrCrAmAmCmUmUmGmAmAmAmAmAmGmUmGmGmCmAmCmCmGmAmGmUmCmGmGmUmGmCmU*mU*mU*mU', '61.20%');
